assay.target: human recombinant integrin αvβ6 (αv extracellular domain-acidic leucine zipper-His×6 with β6 extracellular domain-basic leucine zipper) (human) (UniProt P06756)
Sequence (P06756 other isoform, or with tags, fused parts or gaps, chain 1 of 2): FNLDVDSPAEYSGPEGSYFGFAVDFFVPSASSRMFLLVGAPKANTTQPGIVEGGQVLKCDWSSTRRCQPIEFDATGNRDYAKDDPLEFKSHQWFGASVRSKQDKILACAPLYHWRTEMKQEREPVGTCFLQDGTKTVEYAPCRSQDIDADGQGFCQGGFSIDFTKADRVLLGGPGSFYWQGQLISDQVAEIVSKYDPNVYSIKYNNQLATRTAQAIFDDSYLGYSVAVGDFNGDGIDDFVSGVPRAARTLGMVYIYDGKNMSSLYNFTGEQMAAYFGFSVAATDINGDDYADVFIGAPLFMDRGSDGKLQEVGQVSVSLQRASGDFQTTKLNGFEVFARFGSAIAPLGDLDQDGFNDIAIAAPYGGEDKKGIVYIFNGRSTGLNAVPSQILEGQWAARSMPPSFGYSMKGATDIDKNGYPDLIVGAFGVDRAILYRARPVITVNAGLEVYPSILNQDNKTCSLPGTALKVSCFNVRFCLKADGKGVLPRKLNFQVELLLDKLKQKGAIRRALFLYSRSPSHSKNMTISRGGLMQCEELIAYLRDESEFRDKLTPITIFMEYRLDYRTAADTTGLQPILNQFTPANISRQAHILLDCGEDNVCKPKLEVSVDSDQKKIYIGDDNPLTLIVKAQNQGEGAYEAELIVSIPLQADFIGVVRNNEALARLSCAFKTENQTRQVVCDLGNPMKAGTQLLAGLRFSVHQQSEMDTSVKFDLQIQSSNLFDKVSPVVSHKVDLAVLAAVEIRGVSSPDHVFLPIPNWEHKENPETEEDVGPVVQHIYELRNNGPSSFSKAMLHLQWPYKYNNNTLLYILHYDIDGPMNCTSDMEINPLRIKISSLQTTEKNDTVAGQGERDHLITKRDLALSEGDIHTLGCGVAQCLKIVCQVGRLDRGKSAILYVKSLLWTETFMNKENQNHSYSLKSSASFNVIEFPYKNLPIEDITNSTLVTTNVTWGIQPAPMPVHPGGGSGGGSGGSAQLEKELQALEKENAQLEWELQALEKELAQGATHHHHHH
Sequence (chain, as listed by the source, chain 2 of 2): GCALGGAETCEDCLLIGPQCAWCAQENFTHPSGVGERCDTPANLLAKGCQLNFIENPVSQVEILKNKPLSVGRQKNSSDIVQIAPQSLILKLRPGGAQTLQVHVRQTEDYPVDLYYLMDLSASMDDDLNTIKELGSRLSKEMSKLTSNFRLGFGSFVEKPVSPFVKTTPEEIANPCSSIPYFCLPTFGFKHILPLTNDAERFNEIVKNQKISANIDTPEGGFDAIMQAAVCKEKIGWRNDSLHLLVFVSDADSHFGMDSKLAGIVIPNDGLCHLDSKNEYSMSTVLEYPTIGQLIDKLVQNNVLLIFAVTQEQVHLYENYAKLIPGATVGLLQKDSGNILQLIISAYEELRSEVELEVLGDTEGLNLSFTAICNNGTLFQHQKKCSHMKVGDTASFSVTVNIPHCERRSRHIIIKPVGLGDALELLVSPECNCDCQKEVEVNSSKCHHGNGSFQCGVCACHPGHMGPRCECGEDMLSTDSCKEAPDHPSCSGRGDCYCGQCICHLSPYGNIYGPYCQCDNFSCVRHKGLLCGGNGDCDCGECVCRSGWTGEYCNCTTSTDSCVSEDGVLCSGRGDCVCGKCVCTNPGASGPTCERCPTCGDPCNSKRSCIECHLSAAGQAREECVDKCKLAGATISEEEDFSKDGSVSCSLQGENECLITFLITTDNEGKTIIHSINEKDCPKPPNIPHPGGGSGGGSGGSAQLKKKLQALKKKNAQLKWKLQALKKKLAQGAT
protocol.notes: BLI (Octet), antibody captured on anti-human IgG Fc (AHC) biosensor, integrin αvβ6 3.1-100 nM as analyte, divalent cations
readout.type: koff (s⁻¹)
One number for each entry, in s⁻¹.

INPUT: Return koff (reported value) for this binder: 6#4-Ras03 (antibody, part only; not given: RT22 heavy chain, light constant, V domains shown, not shown: another chain or arm of the molecule; a dimerising Fc or GST, chain 1: disulfide bond Cys6-Cys16 closes the cyclic peptide) VL: ESFRPCQYRGDLFVLCFPSDMGSSSNDIQMTQSPSSLSASVGDRVTITCKSSQSLLNSRDGKNYLAWYQQKPGKAPKLLIYWASTRESGVPSRFSGSGSGTDFTLTISSLQPEDFATYFCQQYWYWMYTFGQGTKVEIK
OUTPUT: 0.000265

Source listed as patent US20190389910A1.
